Hey, just so you know, these numbers are from PubChem BioAssay.

# assay_notes: VP16 transactivation reporter inhibitors, counter-screen for LRH-1 inverse agonist project, cell-based, luminescence, high throughput (AID 651615)
# stated_conditions: Gal4-VP16 luciferase reporter cells, at 3.6 µM
Calls of active or inactive are those of the source. No stated cut-off is given here; in the data, active means inhibition above about 33%; inactive means the rest.
Write down one outcome, taken from YES (active), NO (inactive)

The examples below pair each entry with its known result.
CCCCCCCC/C=C\CCCCCCCC(=O)NCCc1ccc(O)c(O)c1; NO
O=[N+]([O-])c1ccc(S(=O)Cc2ccccc2)c([N+](=O)[O-])c1 (stereo unspecified); NO
N#Cc1cc(Br)ccc1N=C1CCCN1c1ccccc1; NO

Kindly review the next compound as well.
INPUT: Status in this test for OCCCNc1ncnc2oc(-c3ccccc3)c(-c3ccccc3)c12 ?
OUTPUT: NO

* * *

# tested_system: Nuclear receptor coactivator 3 (Homo sapiens)
# assay_notes: SRC3 coactivator transcriptional activity inhibitors, confirmation, cell-based, luminescence, quadruplicate (AID 588792);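 further: 0% = DMSO treated cells and 100% = gossypol at 36 µM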
# stated_conditions: HEK293 GAL4-SRC3 luciferase reporter, at 3.6 µM
Activity calls are given as the source filed them.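 The calls were made as follows: active = mean inhibition over 43.08%, the solvent-only control mean plus 3 SD; inactive = the rest.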
Write down the outcome that applies. Available outcomes: active, inactive

Recorded results for 5 compounds are shown here.
O=C(N/N=C/c1ccc[nH]1)c1ccc(COc2cccc3cccnc23)cc1; active
FC(F)(F)c1cccc(Nc2cc(-c3ccccc3)nc3ncnn23)c1; inactive
Cc1cccc(C)c1NC(=O)c1ccc(-c2ccc(Cl)cc2Cl)o1; inactive
COC1C(=O)CCC2(CO2)C1(O)C1(C)OC1CC=C(C)C (stereo not given); inactive
O=C(O)CSCC(=O)Nc1ccc(C2CCCCC2)cc1; active

INPUT: Can you look up the reported call for CC1CCN(Cc2c(C(=O)N/N=C/c3cc(Br)ccc3O)nnn2-c2nonc2N)CC1 for me?
OUTPUT: active

INPUT: Check the results log: what was the call for COc1ccc(-n2c(C)c([N+](=O)[O-])c3ccc(O)c(CN(C)C)c32)cc1 ?
OUTPUT: active

INPUT: What call does the record list for Cc1ccc(N=c2c([N+](=O)[O-])nn(-c3ccc4c(c3)OCCO4)n2O)cc1F ?
OUTPUT: inactive

INPUT: Give the logged outcome of this assay for the following compound: COC(=O)C1=C(CN2CCCc3ccccc32)NC(=O)NC1c1ccc(F)cc1 (stereo not given)
OUTPUT: active

INPUT: // return assay outcome for OCC1OC(n2cnc3c(NCc4ccccc4O)ncnc32)C(O)C1O (stereo not given)
OUTPUT: active

* * *

# tested_system: Nuclear receptor coactivator 2 (Homo sapiens) (UniProt Q15596)
# Sequence (Q15596 whole entry, looked up): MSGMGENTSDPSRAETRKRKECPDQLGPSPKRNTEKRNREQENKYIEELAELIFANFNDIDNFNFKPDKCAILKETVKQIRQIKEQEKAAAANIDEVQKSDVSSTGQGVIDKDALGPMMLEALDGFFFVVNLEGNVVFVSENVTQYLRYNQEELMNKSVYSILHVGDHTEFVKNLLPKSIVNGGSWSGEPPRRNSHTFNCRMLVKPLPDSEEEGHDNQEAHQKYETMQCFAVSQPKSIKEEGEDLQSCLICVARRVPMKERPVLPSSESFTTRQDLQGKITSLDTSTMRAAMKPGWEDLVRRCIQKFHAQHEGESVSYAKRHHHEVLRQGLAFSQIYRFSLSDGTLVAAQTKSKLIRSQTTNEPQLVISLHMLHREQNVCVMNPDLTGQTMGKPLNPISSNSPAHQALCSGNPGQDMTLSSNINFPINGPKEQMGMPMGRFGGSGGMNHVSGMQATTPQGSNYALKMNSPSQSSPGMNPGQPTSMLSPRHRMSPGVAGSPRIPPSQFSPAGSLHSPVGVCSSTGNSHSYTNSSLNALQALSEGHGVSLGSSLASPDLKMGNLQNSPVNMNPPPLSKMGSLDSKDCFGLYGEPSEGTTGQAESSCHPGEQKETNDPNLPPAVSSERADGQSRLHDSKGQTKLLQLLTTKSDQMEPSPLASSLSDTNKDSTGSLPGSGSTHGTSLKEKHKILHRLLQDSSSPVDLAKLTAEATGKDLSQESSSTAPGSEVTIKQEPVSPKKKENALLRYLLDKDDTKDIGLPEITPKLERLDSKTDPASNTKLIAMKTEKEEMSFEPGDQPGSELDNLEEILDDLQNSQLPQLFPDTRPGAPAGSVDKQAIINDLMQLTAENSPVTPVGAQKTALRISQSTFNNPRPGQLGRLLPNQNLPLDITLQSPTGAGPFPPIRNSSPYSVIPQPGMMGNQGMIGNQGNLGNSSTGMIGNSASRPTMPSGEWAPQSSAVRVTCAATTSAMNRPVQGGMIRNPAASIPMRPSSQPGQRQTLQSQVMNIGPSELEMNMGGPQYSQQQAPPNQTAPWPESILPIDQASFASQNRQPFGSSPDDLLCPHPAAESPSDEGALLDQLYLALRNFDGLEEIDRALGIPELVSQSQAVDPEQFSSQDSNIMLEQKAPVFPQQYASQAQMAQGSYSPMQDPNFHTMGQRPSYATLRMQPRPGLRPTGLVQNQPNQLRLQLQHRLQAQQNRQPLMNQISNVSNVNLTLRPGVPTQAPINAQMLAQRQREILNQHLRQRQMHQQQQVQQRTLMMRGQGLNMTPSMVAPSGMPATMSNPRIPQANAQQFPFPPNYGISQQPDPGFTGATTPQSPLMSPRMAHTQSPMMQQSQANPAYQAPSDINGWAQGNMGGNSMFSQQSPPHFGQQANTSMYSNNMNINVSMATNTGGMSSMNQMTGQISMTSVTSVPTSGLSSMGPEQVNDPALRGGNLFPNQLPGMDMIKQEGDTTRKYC
# assay_notes: SRC2 coactivator transcriptional activity inhibitors, confirmation, cell-based, luminescence, HEK293, triplicate (AID 652008);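 further: 0% = DMSO-treated cells and 100% = Gossypol at 36 µM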
# stated_conditions: HEK293 GAL4-SRC2 luciferase reporter, at 8.9 µM, stronger effect = higher value
Would you please tag the item class 1 when its inhibition is 30% or above, and class 0 when it is below?

Past entries and their recorded results:
CCCN(CCC)C1=CC(=[N+]2CCCC2)CC(C)(C)C1; class 0
C=C1C(=O)C23C(O)C1CCC2C12COC3(O)C(O)C1C(C)(C)CCC2O (stereo unspecified); class 0
CC(=O)CSc1ccc(-c2nc3cc(C)c(C)cc3[nH]2)cn1; class 1

INPUT: Does the compound Cc1ccc(-c2nc(CSCC(=O)NC3CCN(Cc4ccccc4)CC3)c(C)o2)cc1 have recorded inhibition that is 30% or more?
OUTPUT: class 1

INPUT: Could you please find out whether O=C(c1ccc(S(=O)(=O)NCc2ccco2)cc1)N1CCN(Cc2ccc3c(c2)OCO3)CC1 has inhibition that meets 30% or exceeds it?
OUTPUT: class 0

INPUT: Could you tell me if the measured inhibition of COC(=O)[C@H]1C[C@@]2(c3ccccc3)c3ccccc3N(S(=O)(=O)c3ccccc3)[C@H]2N1 reaches 30% or more?
OUTPUT: class 0

INPUT: Could you verify whether the entry CCCCN1C[C@@H](COCc2ccccc2)Oc2cc(F)ccc2S1(=O)=O shows inhibition of no less than 30%?
OUTPUT: class 0

INPUT: # bool: inhibition of Cc1cccc(N(Cc2cc(=O)[nH]c3ccccc23)C(=O)CCl)c1 >= 30%
OUTPUT: class 1

INPUT: // inclusive: inhibition at least 30%? input: Cc1ccc2nc(NC(=O)CSCC(=O)OCC(=O)c3ccc(Br)cc3)sc2c1
OUTPUT: class 1

INPUT: hey, is inhibition for this one >= 30%? Cc1ccc(NC(=O)C2CCN(S(=O)(=O)c3cc([N+](=O)[O-])ccc3Cl)CC2)nc1
OUTPUT: class 0

INPUT: Identify whether the reported inhibition of the following compound is 30% or greater: Cc1cc(C(=O)C(C)OC(=O)c2ccc(NC(=O)CC#N)cc2)c(C)n1-c1ccccc1 (stereo unspecified)
OUTPUT: class 0

INPUT: hey, is inhibition for this one >= 30%? Cc1c(/C(O)=C2/C(=O)C(=O)N(CCN3CCOCC3)C2c2ccccn2)cnn1-c1ccccc1 (stereo unspecified)
OUTPUT: class 1
